test system: Saccharomyces cerevisiae; assay: protein stability index of tFT-peptide fusion (C-terminal peptide) (PSI (0-1 scale)); higher = more stable (slower turnover); settings: genetic background: wild type; temperature: 30 C;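 note: PSI is a weighted mean of sequencing reads over stability bins, variants kept only with over 10 reads, mCherry proximal and sfGFP distal, peptide attached via GGGS linker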
protein stability index listing for selected sequences.
readout-type: protein stability index

   sequence_data   value
0   VFSCWQFAGGGY    0.69
1   PNRKCSGTFAAS   0.656
2   PPSPSLLPPLPP   0.684
3   PVILISWQLRCY  0.0229
4   LERSTCYPREPM    0.69
5   LDFLLSMVHGKK   0.702
6   KKKIKIQPRTEN    0.73
7   SKRQQQKITAQE    0.67
8   VYRRWIKGKGRV   0.675
9   GLLGVRVVAGLG   0.625
